The measurements presented in this section are drawn from patent US12528814B2.

Target: IRAK4 (Homo sapiens (Human), UniProt Q9NWZ3)
Sequence (Q9NWZ3 whole entry): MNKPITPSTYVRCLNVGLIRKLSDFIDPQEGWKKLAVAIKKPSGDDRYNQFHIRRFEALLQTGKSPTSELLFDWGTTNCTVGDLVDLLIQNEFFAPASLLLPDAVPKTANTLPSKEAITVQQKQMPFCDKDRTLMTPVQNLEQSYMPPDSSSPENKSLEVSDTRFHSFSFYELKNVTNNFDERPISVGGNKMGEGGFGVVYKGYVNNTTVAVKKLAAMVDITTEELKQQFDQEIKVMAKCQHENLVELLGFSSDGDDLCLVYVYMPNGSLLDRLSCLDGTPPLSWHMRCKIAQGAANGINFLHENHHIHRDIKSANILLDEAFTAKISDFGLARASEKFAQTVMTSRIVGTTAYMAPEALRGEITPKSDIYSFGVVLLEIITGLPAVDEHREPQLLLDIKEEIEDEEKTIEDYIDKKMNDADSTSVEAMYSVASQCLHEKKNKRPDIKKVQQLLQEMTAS
Experiment: IRAK4 Degradation HiBiT Assay
Conditions: read-out: Cellular IRAK4 HiBiT: DC50; Table 5; multiple runs; HiBiT-tagged Jurkat cells, 4 hrs
I'd appreciate it if you marked entries rule met when DC50 is lower than 0.06 µM and rule not met when it is not.

I wonder whether CNc1cc(-c2ccc3cc(C#N)cnn23)ncc1-c1nnc(N2CCC(NC(=O)CN3CCN(c4ccc5c(c4)C(=O)N(C4CCC(=O)NC4=O)C5=O)CC3)CC2)s1 (centres unmarked) has DC50 below 0.06 µM. Can you tell?
rule met

And what about the compound CNc1cc(-c2ccc3cc(C#N)cnn23)ncc1-c1nnc([C@H]2CC[C@H](NC(=O)CCOCCNc3ccc4c(c3)C(=O)N(C3CCC(=O)NC3=O)C4=O)CC2)s1 (some centres unmarked) ?
rule met

Another: CNc1cc(-c2ccc3cc(C#N)cnn23)ncc1-c1nnc(N2CCN(C3CCN(C(=O)Cc4ccc5c(c4)CN(C4CCC(=O)NC4=O)C5=O)CC3)CC2)s1 (centres unmarked)
rule met

Now the same for CC(C)Nc1cc(-c2ccc3cc(C#N)cnn23)ncc1-c1nnc(N2CCC(NCC3CCN(c4ccc5c(c4)C(=O)N(C4CCC(=O)NC4=O)C5=O)CC3)CC2)s1 (centres unmarked)
rule not met

And CNc1cc(-c2ccc3cc(C#N)cnn23)ncc1-c1nnc(N2CCN(C3CCN(C(=O)c4ccc(C(=O)NC5CCC(=O)NC5=O)cc4)CC3)CC2)s1 (centres unmarked) ?
rule not met

Same read-out for N#Cc1cnn2c(-c3cc(NC4CCOCC4)c(-c4nnc(C56CCC(NC(=O)CCOCCOCCOCCNc7cccc8c7C(=O)N(C7CCC(=O)NC7=O)C8=O)(CC5)CC6)s4)cn3)ccc2c1 (centres unmarked) ?
rule met

Then what about the compound Cc1ncsc1-c1ccc([C@H](C)NC(=O)[C@@H]2C[C@@H](O)CN2C(=O)[C@@H](NC(=O)CCOCCOCCOCCC(=O)N2CCN(c3nnc(-c4cnc(-c5ccc6cc(C#N)cnn56)cc4NC(C)C)s3)CC2)C(C)(C)C)cc1 ?
rule not met

Now try Cc1ncsc1-c1ccc([C@H](C)NC(=O)[C@@H]2C[C@@H](O)CN2C(=O)[C@@H](NC(=O)CCCCCCCCCC(=O)N2CCN(c3nnc(-c4cnc(-c5ccc6cc(C#N)cnn56)cc4NC(C)C)s3)CC2)C(C)(C)C)cc1 .
rule not met

Now this one: CNc1cc(-c2ccc3cc(C#N)cnn23)ncc1-c1nnc([C@H]2CC[C@H](NC(=O)C3CCN(c4ccc5c(c4)C(=O)N(C4CCC(=O)NC4=O)C5=O)CC3)CC2)s1 (some centres unmarked)
rule not met

What do we get for CNc1cc(-c2ccc3cc(C#N)cnn23)ncc1-c1nnc([C@H]2CC[C@H](N(C)CC3CCN(c4ccc5c(=O)n(C6CCC(=O)NC6=O)ccc5c4)CC3)CC2)s1 (some centres unmarked) ?
rule met

Thanks! And CC(C)Nc1cc(-c2ccc3cc(C#N)cnn23)ncc1-c1nnc(N2CCN(CCCCc3cccc4c3CN(C3CCC(=O)NC3=O)C4=O)CC2)s1 (centres unmarked) ?
rule met

Quick one: CNc1cc(-c2ccc3cc(C#N)cnn23)ncc1-c1nnc(N2CCN(C(=O)COc3cc(-c4scnc4C)ccc3CNC(=O)[C@@H]3C[C@@H](O)CN3C(=O)[C@@H](NC(=O)C3(F)CC3)C(C)(C)C)CC2)s1
rule not met

Param item: CC(C)Nc1cc(-c2ccc3cc(C#N)cnn23)ncc1-c1nnc(N2CCN(C(=O)C3CCN(C(=O)CNc4cccc5c4C(=O)N(C4CCC(=O)NC4=O)C5=O)CC3)CC2)s1 (centres unmarked)
rule met

Moving on to the next compound: CNc1cc(-c2ccc3cc(C#N)cnn23)ncc1-c1nnc(N2CC3(CCN(C(=O)CN4CCN(c5ccc6c(c5)C(=O)N(C5CCC(=O)NC5=O)C6=O)CC4)CC3)C2)s1 (centres unmarked)
rule met

Subsequent entry: CC(C)Nc1cc(-c2ccc3cc(C#N)cnn23)ncc1-c1nnc(N2CCN(C(=O)C3CCN(CC4CCN(c5ccc(-c6nn(C7CCC(=O)NC7=O)c(=O)n6C)cc5)CC4)CC3)CC2)s1 (centres unmarked)
rule not met

Try the compound CNc1cc(-c2ccc3cc(C#N)cnn23)ncc1-c1nnc([C@H]2CC[C@H](N(C)C(=O)CCN3CCN(c4ccc5c(c4)C(=O)N(C4CCC(=O)NC4=O)C5=O)CC3)CC2)s1 (some centres unmarked)
rule met

Proceed to CNc1cc(-c2ccc3cc(C#N)cnn23)ncc1-c1nnc(N2CC3CCC(C2)N3C2CCN(C(=O)Cc3ccc4c(c3)CN(C3CCC(=O)NC3=O)C4=O)CC2)s1 (centres unmarked)
rule met

# repeat for CNc1cc(-c2ccc3cc(C#N)cnn23)ncc1-c1nnc(N2CCN(C[C@@H]3CCN(c4ccc5c(c4)n(C)c(=O)n5C4CCC(=O)NC4=O)C3)CC2)s1 (some centres unmarked)
rule not met

Next: CNc1cc(-c2ccc3cc(C#N)cnn23)ncc1-c1nnc(N2CCCC3(CN(C(=O)C[C@H](NC(=O)[C@@H]4C[C@@H](O)CN4C(=O)[C@@H](NC(=O)C4(F)CC4)C(C)(C)C)c4ccc(-c5scnc5C)cc4)C3)C2)s1
rule not met

Try this compound too: CC(C)Nc1cc(-c2ccc3cc(C#N)cnn23)ncc1-c1nnc(N2CCN(CCC3CCN(c4ccc5c(c4)C(=O)N(C4CCC(=O)NC4=O)C5=O)CC3)CC2)s1 (centres unmarked)
rule not met
